# System: OVCAR-5
# Assay Name: NCI tumour cell line growth inhibition, 48 h
Active and inactive are the calls of the source. No stated cut-off is given here; in the data, active = GI50 up to about 1.1 µM and inactive = higher.
Please answer using one outcome listed in active, inactive

{"Molecule": "CC(C)(C)C(C#N)(C#N)c1ccc(C(C#N)(C#N)C(C)(C)C)nn1", "Label Class": "inactive"}
{"Molecule": "COC(=O)C1OC(SCCN)C(O)C(O)C1O (configuration not stated)", "Label Class": "inactive"}
{"Molecule": "CC(NC(CC12CC3CC(CC(C3)C1)C2)C(N)=O)c1ccccc1 (configuration not stated)", "Label Class": "inactive"}

Hello, I am checking results. What call was entered for `O=C1Nc2ccccc2/C1=N/Nc1nc(-c2ccccc2)cs1` ? inactive

Give the logged outcome of this assay for the following molecule: `CN1CCC(CNC(=O)CCCCCCCCC(=O)NCC2(c3ccccc3)CCN(C)CC2)(c2ccccc2)CC1` inactive

In this assay, the call recorded for `C[C@]12CC[C@H](O)CC1=CC[C@@H]1[C@@H]2CC[C@]2(C)NC(=O)/C(=C\c3ccccc3)C[C@@H]12` was what? inactive

Hi team, can someone confirm the assay call for `CC1=C2N3C[C@@H](n4c(=O)n(C)c(=O)n43)C23CCC1n1c(=O)n(C)c(=O)n13` ? inactive

What outcome does the record of this test show for `CC(C)=C/C=C1/CS(=O)(=O)C=C1C` ? inactive

Call for entry `COc1cccc(/C(C=O)=C(\Cl)c2ccc(OC)c(OC)c2)c1` : inactive

Would you mind telling me which call this test gave `C=CC(=O)N1C/C(=C\c2ccc(Cl)c(Cl)c2)C(=O)/C(=C/c2ccc(Cl)c(Cl)c2)C1` ? active

Please indicate how the test categorized `c1ccc2c(c1)nc1n2CNCC1` . inactive

---

# Tested on: EKVX
# Assay Name: NCI tumour cell line growth inhibition, 48 h
Activity calls are given as the source filed them. Cut-off read from the data, not from the text of the source: active = GI50 up to about 1.1 µM and inactive = higher.
Reply using exactly one outcome from T (active), F (inactive)

// known answers, use as guide
{"Compound": "COc1cc(CNC(=O)CCCCCCCC/C=C/Br)ccc1O", "Label Class": "F"}
{"Compound": "N/C(=N\\Nc1ccc(S(N)(=O)=O)cc1)c1cnccn1", "Label Class": "F"}

Dear all, I need the recorded test outcome for COC(=O)C1OC(SCCN)C(O)C(O)C1O (configuration not stated) , thank you. F

Hey, what did the test say about `O=C(N[C@@H](Cc1ccccc1)B(O)O)[C@H](Cc1cccc2ccccc12)NC(=O)N1CCOCC1` ? T

Which result was noted for this compound in the test: `CC1(C)OCN(c2ccc(S(N)(=O)=O)cc2)Cn2c1nc1ccccc12` F

Short answer needed: outcome of this test for `[N-]=[N+]=NI1OC(C(F)(F)F)(C(F)(F)F)c2ccccc21` ? F

Per the assay record, what outcome was assigned to C=CC/C=C/Cc1csc(C(C)(C)C(O)C/C=C/C(=C)CCNC(=O)OC)n1 (configuration not stated) ? F

Could you kindly confirm the outcome this assay logged for `CCOC(=O)CO/N=C1/C(=C2/C(=O)Nc3ccccc32)Nc2ccccc21` ? F

Recorded test call requested for `SC1=NNC2(C(Cl)=N1)c1ccccc1-c1ccccc12` F

What classification did COc1cccc2c1C(=O)c1c(O)c3c(c(O)c1C2=O)C[C@](O)(C(=O)CO)CC3OC1CC(N)C(OC2CCCCO2)C(C)O1 (some centres not stated) end up with in this test? T

What was the test verdict on CC(C)(C)C(=O)OCC1CCC(n2cnc3c(=O)[nH]c(N)nc32)O1 (configuration not stated) ? F

Which result was noted for this compound in the test: O=C1NC(Cc2c[nH]c3ccccc23)C(=O)N2C(c3ccccc3)c3[nH]c4ccccc4c3C[C@@H]12 (some centres not stated) F

---

# Test system: UACC-257
# Assay Name: NCI tumour cell line growth inhibition, 48 h
The source made the active and inactive calls. Cut-off read from the data, not from the text of the source: active = GI50 up to about 1.1 µM and inactive = higher.
Pick one and only one: t for active, f for inactive

{"Molecule": "O=C(/C=C/c1ccc(OCCCOc2ccc(/C=C/C(=O)c3ccc(Cl)cc3)cc2)cc1)c1ccc(Cl)cc1", "Label Class": "f"}
{"Molecule": "COc1cc(C(c2cc(OC)c(OC)c(OC)c2)N2C(=O)CCC2C(=O)O)cc(OC)c1OC (stereo not given)", "Label Class": "f"}
{"Molecule": "COc1ccc2[nH]c3c(C)c4c(c(C)c3c2c1)CN(C)C=C4", "Label Class": "f"}
{"Molecule": "CC1OC(O[C@H]2C3C=CO[C@@H](OC4OC(CO)C(O)C(O)C4O)C3[C@@]3(COC(=O)/C=C/c4ccc(O)cc4)O[C@@H]23)C(O)C(O)C1O (stereo not given in full)", "Label Class": "f"}
{"Molecule": "COc1cccc2c1C(=O)c1c(O)c3c(c(O)c1C2=O)C[C@@](O)(C(=O)CO)CC3OC1CC(NCCCC(OC(C)=O)OC(C)=O)C(O)C(C)O1 (stereo not given in full)", "Label Class": "t"}
{"Molecule": "N#C[BH2-][n+]1cn(C2CC(OP(=O)(O)OCC3OC(n4ccc(N)nc4=O)CC3O)C(CO)O2)c2nc(N)[nH]c(=O)c21 (stereo not given)", "Label Class": "f"}

So what was the verdict on CCOC(=O)C1CCCc2sc(N)c(C#N)c21 (stereo not given) in this test? f

Given CCOC1c2cc(OC)c(OC)cc2-c2ccc3ccccc3c2N1C (stereo not given) , state the outcome it received in this test. f

What did this assay record as the result for O=C(c1ccccc1)c1c(CC(O)c2ccncc2)n(C(=O)c2ccccc2)c2ccccc12 (stereo not given) ? f

Assay outcome for `c1ccc(-c2cc(-c3cc(-c4ccccn4)[nH]n3)n[nH]2)nc1` : what was it? f

Answer briefly: the call reported for C=C1C=CC2(Br)OC3CC(C)(Cl)C(Br)CC13C2(C)C (stereo not given) in this assay. f

Assay outcome for CCC12CC(c3ccccc3)C(C(=O)N1)C(=O)N2 (stereo not given) : what was it? f

Hey, what did the test say about `O=C1NI(C#Cc2ccccc2)c2ccccc21` ? f

Could you check what this test reported for `COc1ccc(/C=C2\Sc3nnc(C)n3N=C2c2cc(F)c(Cl)cc2Cl)cc1OC` ? f

Assay result, entry `COc1cc2c(c(OC)c1OC)-c1ccc(SC)c(=O)cc1[C@@H](NCc1ccccc1[N+](=O)[O-])CC2` — outcome? t

Per the assay record, what outcome was assigned to COC1/C=C/C(C)C(C(C)C(OC)C(C)CCC(=O)C(C)C(CCC(=O)O)OC)OC(=O)/C=C/C=C(\C)CC(OC)CC2=CC(=O)O[C@@H](C(C)C(OC)CC(OC)/C=C/C(C)C(OC)C1)[C@H]2O (stereo not given in full) ? f

Please share the test call associated with O=C1CC(O)c2cscc21 (stereo not given) . f

Assay result, entry `Cc1cccc(C)c1NC(=O)/C(Cl)=C(/Cl)C(=O)O` — outcome? f

Fill in: this test's call for C=C1CC(C)(COc2ccc3c(C)c(Cl)c(=O)oc3c2)OC1=O (stereo not given) is ___ f

Would you mind telling me which call this test gave `CCOC(=O)c1nc2ccccc2nc1Nc1ccc(F)cc1` ? f

Tell me the assay call for O=C(CC(C(=O)c1ccsc1)c1cccs1)c1cccs1 (stereo not given) please. f

---

# Test system: OVCAR-4
# Assay Name: NCI tumour cell line growth inhibition, 48 h
Activity calls are given as the source filed them. Cut-off read from the data, not from the text of the source: active = GI50 up to about 1.1 µM and inactive = higher.
Metric Name: GI50

Completed entries (count: 3):
{"Compound": "COC1CC(O[C@H]2CC[C@@]3(C)[C@@H](CC[C@]4(O)[C@@H]3CC[C@]3(C)[C@@H](C(C)=O)[C@H](OC(=O)CC(C)C)[C@@H](OC(=O)c5ccccc5)[C@@]34O)C2)OC(C)C1OC1CC(OC)C(OC2OC(C)C(O)C(OC)C2O)C(C)O1 (some centres undefined)", "GI50": "19.1 µM (inactive)"}
{"Compound": "COc1cc(CNC(=O)CCCCCCCC/C=C/Br)ccc1O", "GI50": "> 10 µM (inactive)"}
{"Compound": "CC(NC(CC12CC3CC(CC(C3)C1)C2)C(N)=O)c1ccccc1 (centres undefined)", "GI50": "33.7 µM (inactive)"}

Now look at this one.
# return recorded GI50 for entry C=C1C=CC2(Br)OC3CC(C)(Cl)C(Br)CC13C2(C)C (centres undefined) 30.1 µM (inactive)

---

# Test system: MOLT-4
# Assay Name: NCI tumour cell line growth inhibition, 48 h
The source made the active and inactive calls. No stated cut-off is given here; in the data, active = GI50 up to about 1.1 µM and inactive = higher.
Catalogue of GI50 values

Worked cases, GI50 given:
{"Molecule": "O=C(/C=C/c1ccc(OCCCOc2ccc(/C=C/C(=O)c3ccc(Cl)cc3)cc2)cc1)c1ccc(Cl)cc1", "GI50": "> 100 µM (inactive)"}
{"Molecule": "CC1(C)OCN(c2ccc(S(N)(=O)=O)cc2)Cn2c1nc1ccccc12", "GI50": "> 100 µM (inactive)"}
{"Molecule": "CCCCc1ccc(Nc2nc3ncnc-3c[nH]2)cc1", "GI50": "14.3 µM (inactive)"}
{"Molecule": "COc1ccc2c(c1OC)C(=O)c1cnccc1C2=O", "GI50": "> 100 µM (inactive)"}

Provide MOLT-4 GI50 reading for `COC(=O)c1ccc(/C=C/c2cc(O)ccc2O)cc1` . 0.255 µM (active)

Check MOLT-4 data and give GI50 for NC1=NC(c2ccccc2)CC(c2cc(Cl)cc(Br)c2O)=N1 (stereo unspecified) . 3.1 µM (inactive)

// fetch GI50; item: `NNc1[nH]c(=S)[nH]c1C(N)=O` ; system: MOLT-4 > 100 µM (inactive)

State measured GI50 of the molecule `CN(C)/C=N/S(=O)(=O)c1nn2c(C=O)c(-c3ccc([N+](=O)[O-])cc3)nc2s1` with MOLT-4. 2.35 µM (inactive)
